Experiment: chemical genetic growth profiling, strain panel (AID 1159580);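 note: tested at 20 µM; growth read once vehicle control cultures reached saturation at 30 °C; 1 = growth at the plate median or of vehicle wells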
Details: S. cerevisiae deletion strains, growth OD, locus YJL164C, strain tpk1, hits give low values
The whole screen tested about 5,500 compounds, of which about 2,000 (36%) were called active. Inconclusive results (about 18%) are left out. This is one part of the list.
# if measured normalized growth < 1: rule met  # else: rule not met

Determine if CN1CCC(=C2c3ccccc3CCc3sccc32)CC1 shows normalized growth strictly lower than 1.
rule met

Please check: normalized growth for CC(=O)OCC[N+](C)(C)C , strictly under 1 or not?
rule not met

Is normalized growth strictly under 1 for the entry NC(=O)C(c1ccccc1)(c1ccccc1)C1CCN(CCc2ccc3c(c2)CCO3)C1 (configuration not stated) ?
rule not met

Does COc1cc(O)c(C(=O)/C=C/c2ccccc2)c(OC)c1 have normalized growth strictly under 1?
rule met

I wonder whether COc1cc(O)c(C(=O)/C=C/c2ccc(O)c(OC)c2)c(OC)c1 has normalized growth below 1. Can you tell?
rule met

Please let me know if COc1cc(O)c(C(=O)/C=C/c2ccc(OC)c(O)c2)c(OC)c1 shows normalized growth below 1.
rule met

Does the reported normalized growth of the following compound sit strictly below 1? CCCCCCNC(=O)n1cc(F)c(=O)[nH]c1=O
rule met

normalized growth under 1? Item: COC1=CC(=O)C[C@@H](C)[C@]12Oc1c(Cl)c(OC)cc(OC)c1C2=O
rule met

---

Listed here: items and their measured normalized growth.
Assay: chemical genetic growth profiling, strain panel (AID 1159580);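 note: tested at 20 µM; growth read once vehicle control cultures reached saturation at 30 °C; 1 = growth at the plate median or of vehicle wells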
Settings: S. cerevisiae deletion strains, growth OD, locus YLR384C, strain iki3, hits give low values
In all, about 5,500 compounds went through this assay and about 2,000 (36%) were called active. Not shown: some 18% with an inconclusive outcome. Some of the results follow.
Number only, no unit.

# count of solved cases: 4
{"columns": ["Compound", "normalized growth"],
 "data": [
  ["C[C@]12CCC(=O)C=C1CCC1C2CC[C@@]2(C)C1CC[C@@H]2O (stereo not given in full)", 1],
  ["CC(=O)O[C@@H]1C[C@@]2(C)C(CC[C@@H]2C(C)=O)C2CCC3=CC(=O)CC[C@]3(C)C21 (stereo not given in full)", 1.01],
  ["C=C(C)C1CNC(C(=O)O)C1CC(=O)O (stereo not given)", 0.97],
  ["CCC(=O)O[C@H]1CCC2C3CCC4=CC(=O)CC[C@]4(C)C3CC[C@@]21C (stereo not given in full)", 0.969]
]}

Determine from records and report normalized growth for ClC1=C(Cl)C2(Cl)C3C4C=CC(C4)C3C1(Cl)C2(Cl)Cl (stereo not given)
0.988

---

Test: chemical genetic growth profiling, strain panel (AID 1159580);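 note: tested at 20 µM; growth read once vehicle control cultures reached saturation at 30 °C; 1 = growth at the plate median or of vehicle wells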
Conditions: S. cerevisiae deletion strains, growth OD, locus YOL012C, strain htz1
Among all 5,500 compounds or so, about 2,000 (36%) were called active. Roughly 18% stayed inconclusive and do not appear here. No stated cut-off is given here; in the data, active means normalized growth mostly below about 0.91 (no sharp cut-off); inconclusive means no clear call, values can overlap the other calls; inactive means mostly above about 0.92. The list shows a part of the results.
// one of true (1) (active), false (0) (inactive), no free text

{"columns": ["Molecule", "Class Assignment"],
 "data": [
  ["CC(NCCc1ccc(O)cc1)C(O)c1ccc(O)cc1 (centres undefined)", "false (0)"],
  ["C=C(C)[C@@H]1[C@H]2OC(=O)[C@@H]1[C@]1(O)C[C@H]3O[C@]34C(=O)O[C@H]2[C@]14C", "false (0)"],
  ["CCC(C)C(=O)O[C@H]1[C@H](O)C2C(CN3CC(C)CCC3[C@@]2(C)O)C2C[C@]34O[C@]5(O)C(OC(=O)C(C)(O)C(C)O)CC[C@@]3(C)C5C(OC(C)=O)[C@@H](OC(C)=O)C4[C@@]21O (some centres undefined)", "false (0)"],
  ["COc1ccc2c3c1O[C@H]1C[C@@H](O)C=C[C@@]31CCN(C)C2", "false (0)"],
  ["COc1cc(NC(C)CCCN)c2ncccc2c1 (centres undefined)", "false (0)"]
]}

What did the test return for CCCCCCCCNC(C)C(O)c1ccc(SC(C)C)cc1 (centres undefined) ?
true (1)

GET /call?item= CC(CCc1ccccc1)NC(C)C(O)c1ccc(O)cc1 (centres undefined) returns the recorded outcome of this test.
false (0)

What is the recorded call for this molecule in the test? CCOC(=O)C(Cc1ccc(O)cc1)NC(C)=O (centres undefined)
false (0)

For O=C(CC[N+](=O)[O-])OC[C@H]1O[C@@H](O)[C@H](OC(=O)CC[N+](=O)[O-])[C@@H](OC(=O)CC[N+](=O)[O-])[C@@H]1OC(=O)CC[N+](=O)[O-] , what call appears in the results of this test?
false (0)
